B1: PI4K2A (parent)
chain: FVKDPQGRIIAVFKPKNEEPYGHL

Variants of: B1
experiment_notes: protein stability index of a GFP-peptide fusion (GPS, HEK-293T) (PSI 1-6); higher = more stable;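 note: lentivirally expressed fusions sorted by FACS into six bins by GFP to DsRed ratio, PSI derived from sequencing read proportions per bin multiplied by bin number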
test_conditions: c terminus: a fixed tail appended
recorded_metric: protein stability index
Just the number, please, no unit after it.

{"mutant_designation": "G22P", "protein stability index": 2.63}

// switching to the query variant
Looking up `P5Y` , I found its protein stability index recorded as 2.28

Just for reference, the supplement of paper PMC10567573 is where these values come from.
